- TARGET_OF_ASSAY: Polθ-h (Polθ helicase domain) (UniProt O75417 1-894)
- Sequence (O75417 1-894): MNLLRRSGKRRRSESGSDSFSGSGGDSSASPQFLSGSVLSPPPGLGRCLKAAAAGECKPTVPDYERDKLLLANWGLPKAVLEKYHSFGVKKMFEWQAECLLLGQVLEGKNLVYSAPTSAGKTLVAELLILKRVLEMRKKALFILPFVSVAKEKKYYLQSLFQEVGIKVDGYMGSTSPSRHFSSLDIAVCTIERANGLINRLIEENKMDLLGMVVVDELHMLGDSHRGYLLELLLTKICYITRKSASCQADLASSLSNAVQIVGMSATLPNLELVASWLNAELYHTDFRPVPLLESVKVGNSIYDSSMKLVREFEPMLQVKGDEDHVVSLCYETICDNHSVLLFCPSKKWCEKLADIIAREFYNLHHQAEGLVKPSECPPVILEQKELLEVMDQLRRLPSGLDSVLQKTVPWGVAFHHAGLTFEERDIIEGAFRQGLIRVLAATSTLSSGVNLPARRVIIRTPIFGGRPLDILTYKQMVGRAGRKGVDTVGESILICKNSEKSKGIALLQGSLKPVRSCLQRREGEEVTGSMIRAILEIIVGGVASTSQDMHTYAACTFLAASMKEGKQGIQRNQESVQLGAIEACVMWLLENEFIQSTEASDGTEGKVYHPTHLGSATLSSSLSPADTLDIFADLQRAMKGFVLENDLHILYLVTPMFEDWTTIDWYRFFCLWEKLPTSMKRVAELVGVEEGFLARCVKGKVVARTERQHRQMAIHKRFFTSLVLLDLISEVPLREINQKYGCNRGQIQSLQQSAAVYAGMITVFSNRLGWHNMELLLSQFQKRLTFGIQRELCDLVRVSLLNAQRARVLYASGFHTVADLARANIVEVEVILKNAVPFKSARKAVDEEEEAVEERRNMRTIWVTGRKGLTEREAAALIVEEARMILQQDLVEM
- ASSAY_NAME: EMSA; no PARP-1 modification; hyperbolic fit; Imaging Buffer: 40 mM Tris-HCl pH 8.0, 50 mM NaCl, 2 mM MgCl2, 1 mM DTT, 0.2 mg/ml BSA, 1 mM ATP; EMSA at room temperature, single-molecule at 37 C; PARP-1 tethering without BSA; displacement EMSA in 30 mM HEPES pH 8.0, 50 mM NaCl, 1.5 mM MgCl2, 1 mM DTT
- CONDITION_PARAMETERS: protein: recombinant; tags: pET19 N-terminal 6xHis-TwinStrep-SUMO; chain copies: 4; label: 5'-32P in EMSA; unlabeled as challenge in tethering assay
PROPERTY_NAME: pKd
Please express pKd as -log10 of the molar concentration.

Provide pKd value for the following binder: TTTTTTTTTTTTTTTTTTTTTTTTTTTTTTTTTTTTTTTTTTTTTTTTTT (ssDNA) [dT50 (Poly-T50)]
7.41
